Experiment: HepG2 cytotoxicity screening (CellTiter-Glo)
Details: human, uninfected HepG2-A16-CD81 (EGFP) hepatocytes
pIC50: −log10 of the molar value.
Entries annotated with measured pIC50

I'd like to know its pIC50. The molecule in question is Cc1ccc(Nc2nccc(C3CCN(CC(N)=O)C3)n2)nc1 (centres unmarked)
< 4.60

pIC50 lookup needed for `Cc1csc2ncnc(N3CCC(Cn4cc(C(C)(C)N)nn4)CC3)c12` , thanks.
< 4.60

Record request: pIC50 value, item `NC(=O)c1ccc(N2CCCCC2)c(NC(=O)c2ccc(F)cc2F)c1`
< 4.60

Fill in: pIC50 of `Cc1ccc(N(CC(=O)c2ccc(Br)cc2)C2=NCCCCC2)cc1` is ___
< 4.60

Need pIC50, item `CCc1nc(CN2CCN(c3ncnc4cc(F)ccc34)CC2)no1`
5.20

====

Listing of recorded Emax by entry.
Test system: P. falciparum Dd2 (PfLuc) line expressing firefly luciferase, asexual blood stage
Test: microbe, parasite or virus in culture
Format: cell-based, Plasmodium falciparum
Settings: Plasmodium falciparum, DD2; 11-pt dose response, 96hr; read-out: CDD P. falciparum Luciferase ABS 11-pt Reconfirmation Dose Response (96hr): Maximum inhibition (%)
Just the number in %, nothing appended.

Some entries whose results are on file:
CCCOc1ccc2ccccc2c1CN1CC[C@@]2(O)CCNC[C@H]2C1 [DDD01246029] : 98.8
NCC1(c2cccc(Br)c2)CCOCC1 [DDD01079955] : 85.9
CN(CCO)Cc1cc(Cl)ccc1OCC(O)CN1CCCCCC1 (stereo not drawn) [DDD01243745, CN(CCO)CC1=CC(Cl)=CC=C1OCC(O)CN1CCCCCC1] : 98.8

Which Emax value belongs to CN1CCC(N(C)c2ccccc2CNCc2ccco2)CC1 [DDD01074928] ?
97.1

====

System: P. falciparum Dd2 (PfLuc) line expressing firefly luciferase, asexual blood stage
Assay: microbe, parasite or virus in culture
Type: cell-based, Plasmodium falciparum
Details: Plasmodium falciparum, DD2, read-out: CDD P. falciparum Luciferase ABS 11-pt Reconfirmation Dose Response (48hr): IC50 (μM); 11-pt dose response, 48hr
Flag rule - IC50 less than 3 µM flags Met; the remaining entries get Not met.

Field: below-cutoff. Rule: recorded IC50 strictly less than 3 µM. Subject: COCC(O)CN(C)c1ccnc2cc(Br)ccc12 (centres unmarked) [DDD01076306]
Met

Take the compound CNC(=O)CCN(C)CC1(c2ccc(Br)cc2)CC1 [DDD01064880] and say whether its IC50 is less than 3 µM.
Not met

Does CC(C)C(CNCc1cccc2c1OCO2)N1CCOCC1 (centres unmarked) [DDD01077478] have IC50 strictly under 3 µM?
Not met

Here's an entry: CCC1CN(CC(=O)NCCN2CCCCC2)c2ccccc2S1 (centres unmarked) [DDD01025850] . Is its IC50 below 3 µM?
Not met

Please let me know if CN(Cc1cc(F)cc2cccnc12)CC1CCN(CCO)CC1 [DDD01063806] shows IC50 below 3 µM.
Not met

====

Test system: P. falciparum Dd2
Test: SYBR green I asexual blood stage proliferation assay (96 h)
Type: cell-based, Plasmodium falciparum
Conditions: Plasmodium falciparum, DD2; Sybr Green I, 11-pt dose response, 96hr; read-out: CDD P. falciparum Sybr Green I ABS 11-pt Reconfirmation Dose Response (96hr): Maximum inhibition (%)
Answer false (0) if Emax is under 90%, and true (1) if it is 90% or more.

Cc1nc(-c2ccc(F)c(F)c2)cc(C2CCNCC2)n1 : false (0)
CCc1cc(CNCc2ccccc2N(C)C2CCN(C)CC2)on1 : false (0)
CN(C)c1nc2c(c(NCc3cc(O)ncn3)n1)CCCC2 : true (1)
CN(CCO)C[C@@H]1CN(C2CCN(c3ccccc3Cl)CC2)C[C@@H]1CO : false (0)
Cc1ncc(CN(Cc2ccccn2)Cc2ccccc2Cl)n1C : false (0)

Hi team, for `O=C(CC1CCCC1)NCCNCc1cccc2c1OCCO2` , is the recorded Emax at or above 90%?
false (0)

Please check the record c1ccn2c(C3CCCN(c4ncnc5c4CCNC5)C3)nnc2c1 (stereo not drawn) and state if its Emax is at or above 90%.
false (0)

Could you tell me if the measured Emax of Cc1cc(C2CCCN(CC(=O)Nc3nc4c(s3)CCC4)C2)n[nH]1 (stereo not drawn) reaches 90% or more?
false (0)

# check: Emax of CC(C)CNC(=O)C1(Cc2ccccc2-c2cccs2)CCNC1 (stereo not drawn) is greater than or equal to 90%
false (0)

Could you tell me if the measured Emax of Cc1ccc(CNC(CN2CCN(C)CC2)c2ccccc2)cc1 (stereo not drawn) reaches 90% or more?
true (1)

Form field: Emax at least 90%? Entry: CCN1CCC2(CC1)CC(NCc1ccncc1)c1ccccc1O2 (stereo not drawn)
false (0)

Assess whether reported Emax for CC(O)c1cccc(Nc2nc(NCCO)c3ccccc3n2)c1 (stereo not drawn) sits at 90% or higher.
true (1)

Does Emax meet or surpass 90% for `Cc1nn(C)cc1C1=NS(=O)(=O)N(C)C(C(=O)Nc2ccc(Br)cc2)=C1` ?
true (1)

For this compound, is measured Emax 90% or higher? Nc1cc(-c2c[nH]nc2C2CCCN2CCCc2ccccc2)ccn1 (stereo not drawn)
true (1)

Emax >= 90% for `Fc1ccccc1Cn1c(C2CCNCC2)cc2cccnc21` ?
false (0)

Item `Cc1cccc(C)c1Nc1noc2c1CN(C(=O)c1cn(C)cn1)CC2` with Emax of 90% or above?
true (1)

Could you please find out whether `COc1ccccc1C1(CNCc2cccc(O)c2)CCOCC1` has Emax that meets 90% or exceeds it?
false (0)

Quick check, Emax >= 90%? Cc1cc(C)c(CNCC(O)c2ccc(F)c(F)c2)c(C)c1 (stereo not drawn)
true (1)

Test whether the compound COc1cc(CNCC(O)c2ccc(F)c(F)c2)cc2c1OCO2 (stereo not drawn) records Emax of 90% or higher.
true (1)

In plain terms: is recorded Emax at least 90% for `Clc1ccccc1C1(c2ccnc(C3CC3)n2)CCNCC1` ?
false (0)

Test whether the compound `Cc1noc(C)c1CNCc1ccccc1N(C)C1CCN(C)CC1` records Emax of 90% or higher.
false (0)
